# Method notes: High-throughput drug toxicity screening in the BPDCN cell line Cal-1 (AID 1224825);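 further: cells exposed to compounds for 48 h; 100% = DMSO and 0% = bortezomib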
# Particulars: Cal-1 BPDCN cell viability, qHTS; at 45.8 µM (top of the series) unless noted
# Description: Blastic plasmacytoid dendritic cell neoplasm (BPDCN) is a rare, aggressive and largely incurable hematologic malignancy originating from plasmacytoid dendritic cells (pDCs). Although an initial response to chemotherapy is common, BPDCN prognosis is extremely poor and most patients relapse with drug-resistant disease leading to a median overall survival of ~1 year after diagnosis. […]
Metric name: viability (% of control) (%)
Hi! Could you send only the number? It should be in %, unit omitted.

[ask] Requested field: viability (% of control). Item: CO[C@H]1/C=C\O[C@@]2(C)Oc3c(C)c(O)c4c(O)c(c5c(nc6cc(C)ccn65)c4c3C2=O)NC(=O)C(C)=CC=C[C@H](C)[C@H](O)[C@@H](C)[C@@H](O)[C@@H](C)[C@H](OC(C)=O)[C@H]1C
[reply] 32.4

[ask] Same again, this time with COc1cc2nccc(Oc3ccc(NC(=O)Nc4cc(C)on4)c(Cl)c3)c2cc1OC
[reply] 13

[ask] Let us now turn to C=C1[C@H](n2cnc3c(=O)[nH]c(N)nc32)C[C@H](O)[C@H]1CO
[reply] 8.7

[ask] One more compound: CCC(=O)OCC(=O)[C@@]1(OC(=O)CC)[C@@H](C)C[C@@H]2[C@H]3CCC4=CC(=O)C=C[C@]4(C)[C@@]3(F)[C@@H](O)C[C@@]21C
[reply] 15

[ask] What do you get for CC(C)CN(C[C@@H](O)[C@H](Cc1ccccc1)NC(=O)O[C@H]1CO[C@H]2OCC[C@H]21)S(=O)(=O)c1ccc(N)cc1 ?
[reply] 117

[ask] # iterate: CNc1nc(-c2ccc3c(N)n[nH]c3c2)cc(N2C[C@@H](C(=O)NC3CCCCC3)CC[C@@H]2C)n1
[reply] 18.1

[ask] Would you mind doing N=C1SC(=Cc2ccc(-c3ccc4c(c3)C(=O)NC4=O)o2)C(=O)N1c1ccc(Br)cc1 as well?
[reply] 35.6

Recorded values, source PubChem BioAssay (NCATS).
